Data origin: paper PMC11417181

Property: proportion of dimer; scope: individual proteins
- Assayed Target: the molecule itself
- Assay Comment: AUC; sedimentation velocity of the SCR fragments, 20 °C, 50,000 rpm, Hepes buffer (10 mM Hepes, 137 mM NaCl, pH 7.4), c(s) analysis in SEDFIT, proportions of monomer and dimer from peak integration; monomer to dimer
State the answer as a number, implicitly in %.

The following proteins have reported results that may help.
SCR-17/18H, glycosylated two-domain fragment of complement factor H expressed in Pichia pastoris (domain or fragment, Pichia hyperglycosylated N-linked glycans (Man8-18GlcNAc2) at Asn1011 and Asn1077) IKTDCLSLPSFENAIPMGEKKDVYKAGEQVTYTCATYYKMDGASNVTCINSRWTGRPTCRDTSCVNPPTVQNAYIVSRQMSKYPSGERVRYQCRSPYEMFGDEEVMCLNGNWTEPPQCKDST | 72
SCR-16/20, glycosylated five-domain C-terminal fragment of complement factor H expressed in Pichia pastoris (domain or fragment, Pichia hyperglycosylated N-linked glycans at Asn1011 and Asn1077) EGLPCKSPPEISHGVVAHMSDSYQYGEEVTYKCFEGFGIDGPAIAKCLGEKWSHPPSCIKTDCLSLPSFENAIPMGEKKDVYKAGEQVTYTCATYYKMDGASNVTCINSRWTGRPTCRDTSCVNPPTVQNAYIVSRQMSKYPSGERVRYQCRSPYEMFGDEEVMCLNGNWTEPPQCKDSTGKCGPPPPIDNGDITSFPLSVYAPASSVEYQCQNLYQLEGNKRITCRNGQWSEPPKCLHPCVISREIMENYNIALRWTAKQKLYSRTGESVEFVCKRGYRLSSRSHTLRTTCWDGKLEYPTCAKR | 8

Please give the measured proportion of dimer for this protein: SCR-16/20 deglycosylated with PNGase F (domain or fragment, N-linked glycans at Asn1011 and Asn1077 removed with PNGase F) EGLPCKSPPEISHGVVAHMSDSYQYGEEVTYKCFEGFGIDGPAIAKCLGEKWSHPPSCIKTDCLSLPSFENAIPMGEKKDVYKAGEQVTYTCATYYKMDGASNVTCINSRWTGRPTCRDTSCVNPPTVQNAYIVSRQMSKYPSGERVRYQCRSPYEMFGDEEVMCLNGNWTEPPQCKDSTGKCGPPPPIDNGDITSFPLSVYAPASSVEYQCQNLYQLEGNKRITCRNGQWSEPPKCLHPCVISREIMENYNIALRWTAKQKLYSRTGESVEFVCKRGYRLSSRSHTLRTTCWDGKLEYPTCAKR
2
